assay.info: amyloid nucleation score (Sup35N fusion, yeast selection) (log enrichment); library NNK3; higher = more nucleation; inactive = no reads after selection;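 further: zero at mode of non-aggregating sequences after 7 days selection at 30°C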
observable: amyloid nucleation score

# count of solved cases: 5
# substance, amyloid nucleation score
rows = [
    ("KGLSLGCIFKGLEFREQGVE", "inactive"),
    ("VSCSPMYEEYRHGNLAEYNE", -0.559),
    ("CSPSFDVYPMV", "inactive"),
    ("YAVYRTPFVSKLAMFQLVQ", -1.04),
    ("FLLNQIIGQLKHHLFVVSVN", "inactive"),
]

Look up amyloid nucleation score for this substance: "NSGLSIVWDWLDCFSGMKYS"
inactive

Look up amyloid nucleation score for this substance: "CLTLMALAKGFGVWGG"
-0.176

Look up amyloid nucleation score for this substance: "DAPVVTVRAGNAGNHSMIPW"
inactive

Look up amyloid nucleation score for this substance: "CLACFI"
inactive

###

assay.info: amyloid nucleation score (Sup35N fusion, yeast selection) (log enrichment); library NNK3; higher = more nucleation; inactive = no reads after selection
observable: amyloid nucleation score

# sequence, val
rows = [
    ("TWIMALLMILFNKVFVSSTR", "inactive"),
    ("NTHMRAIMNPLDVSVPRPHK", "inactive"),
    ("PTGMPYNLTWFFWHATMPLL", -0.255),
    ("IYRSIRQAVLCLGLSGS", "inactive"),
    ("VGPALNVVSWELV", "inactive"),
    ("AGPVMRRLFVNGWFVVFGRM", "inactive"),
    ("PMHGGTSSQSYNNLLRRSVK", "inactive"),
    ("GYGSAQCQFRWWYCFE", -0.317),
    ("LVGGTTLLIPVCS", "inactive"),
    ("AWLSLVCVDVGTTPFSHNDR", "inactive"),
]

Look up amyloid nucleation score for this sequence: "PGIIGTSNSFYQCVMWQVFG"
2.13

Look up amyloid nucleation score for this sequence: "GRDMMWAVCDFEAKLELETG"
inactive

Look up amyloid nucleation score for this sequence: "NMQVHFIMCARSRLQGNHVS"
inactive

Look up amyloid nucleation score for this sequence: "SFLGCFHGDY"
inactive

Look up amyloid nucleation score for this sequence: "HWVWIGVCLYNDRRGTGICV"
1.15

Look up amyloid nucleation score for this sequence: "IMTSFPGEFPLSLHNMCASC"
inactive

Look up amyloid nucleation score for this sequence: "DTYFTVCSLWGPV"
0.999

###

assay.info: amyloid nucleation score (Sup35N fusion, yeast selection) (log enrichment); library NNK3; higher = more nucleation; inactive = no reads after selection
observable: amyloid nucleation score

# count of solved cases: 4
# substance, observable, val
rows = [
    ("YALMLVFERHSRAARSVGMG", "amyloid nucleation score", "inactive"),
    ("HSVFFY", "amyloid nucleation score", "inactive"),
    ("LKVMWLWSAKINYMSIVENL", "amyloid nucleation score", "inactive"),
    ("NWYLALSGLVLSPYRGIRSG", "amyloid nucleation score", "inactive"),
]

Look up amyloid nucleation score for this substance: "STVQLYSPIQESVVTVFTNK"
inactive

Look up amyloid nucleation score for this substance: "ESQISEN"
inactive

Look up amyloid nucleation score for this substance: "VSKYIVSHIASSWSWGQWVL"
inactive

Look up amyloid nucleation score for this substance: "QMFSLTFIVMFLFFPSRGCR"
inactive

Look up amyloid nucleation score for this substance: "DIRCGFLHKQGPLTMRATEQ"
inactive

Look up amyloid nucleation score for this substance: "GDSSVTWI"
inactive

Look up amyloid nucleation score for this substance: "LFSELKISSVWCDL"
inactive

Look up amyloid nucleation score for this substance: "IMFSILSVMML"
1.74

Look up amyloid nucleation score for this substance: "SQHHPSGSSMWGKWIMLDPR"
inactive

Look up amyloid nucleation score for this substance: "LQFPPNLSMLCKVTQPSNNW"
inactive

Look up amyloid nucleation score for this substance: "SHKPLDRYLIEWLGLQELLT"
inactive

Look up amyloid nucleation score for this substance: "MGEMRMLVTVT"
inactive

Look up amyloid nucleation score for this substance: "VGTIVFVFSFASWPRVGYIR"
inactive

###

Parameter amyloid nucleation score: see the listing below.
assay.info: amyloid nucleation score (Sup35N fusion, yeast selection) (log enrichment); library NNK1; higher = more nucleation; inactive = no reads after selection
Give the figure only, with no unit attached.

Look up amyloid nucleation score for this sequence: "GRSRTRTRLLPGSEGGYDRP"
-1.64

Look up amyloid nucleation score for this sequence: "FGMLIAVRSR"
0.315

Look up amyloid nucleation score for this sequence: "LSMRIQAQMIVAWPTKHPIL"
4.99

Look up amyloid nucleation score for this sequence: "YYNVCHNRINLVTSWFFYRR"
0.946

Look up amyloid nucleation score for this sequence: "RSMWICLWACYNLMVIRWPG"
-0.446

Look up amyloid nucleation score for this sequence: "RWLGRRMRAGFAYGAFRTGY"
0.054

###

assay.info: amyloid nucleation score (Sup35N fusion, yeast selection) (log enrichment); library NNK3; higher = more nucleation; inactive = no reads after selection
observable: amyloid nucleation score

# count of solved cases: 5
# substance, amyloid nucleation score
records = [
    ("STSYYPDVRVATRSSYWHFT", 1.14),
    ("LRSFKSKICVERLRDEIILL", "inactive"),
    ("CRKLYNISFLVLLTFFSHLF", "inactive"),
    ("VRLSVMG", "inactive"),
    ("AELVNIF", "inactive"),
]

Look up amyloid nucleation score for this substance: "NCNKMCRSCFRCQKTFWVWF"
inactive

Look up amyloid nucleation score for this substance: "CIRICNISFFL"
2.71

###

assay.info: amyloid nucleation score (Sup35N fusion, yeast selection) (log enrichment); library NNK2; higher = more nucleation; inactive = no reads after selection
observable: amyloid nucleation score

# count of solved cases: 10
# substance, observable, val
rows = [
    ("YHLLGALYNDAWVIWETTVL", "amyloid nucleation score", -0.116),
    ("AYMVASMESMDACRVLRLPS", "amyloid nucleation score", 0.87),
    ("TVKCLYMGNGAWKTASSVCG", "amyloid nucleation score", 0.482),
    ("GRCPVSRVHGIQRSGDGSVI", "amyloid nucleation score", -0.383),
    ("NALSIQVGSCPRSLISSVGP", "amyloid nucleation score", 0.228),
    ("ILNPFCTRFK", "amyloid nucleation score", -2.26),
    ("FGNDPSGCVNQAYYHRCFLD", "amyloid nucleation score", -0.959),
    ("YIIIYLTRHTGVRDVYVSGG", "amyloid nucleation score", -0.79),
    ("FNWVEWLFFSMAFKLLVESR", "amyloid nucleation score", "inactive"),
    ("TYYVYEVGVS", "amyloid nucleation score", -0.203),
]

Look up amyloid nucleation score for this substance: "SHWEMRQVGSVVVGIKGKGN"
0.972

Look up amyloid nucleation score for this substance: "EFGDQLSDYNWIVCMLGTYI"
-0.904

###

assay.info: amyloid nucleation score (Sup35N fusion, yeast selection) (log enrichment); library NNK2; higher = more nucleation; inactive = no reads after selection
observable: amyloid nucleation score

# count of solved cases: 5
# substance, observable, val
records = [
    ("SPIYYIKGYFLLISKCFADR", "amyloid nucleation score", 4.56),
    ("SDHFKWV", "amyloid nucleation score", -1.05),
    ("EWLAVYVYLHQDGLNNFRS", "amyloid nucleation score", -0.784),
    ("HSLVCDN", "amyloid nucleation score", -0.122),
    ("FYVPSS", "amyloid nucleation score", -0.158),
]

Look up amyloid nucleation score for this substance: "VVNSGICSYRCFTVGQVTYK"
-0.553

Look up amyloid nucleation score for this substance: "RGWLRFMEQNGTYSEYDVDL"
12.8

Look up amyloid nucleation score for this substance: "HNNGRSFYEKAMVDLGGAWL"
0.263

Look up amyloid nucleation score for this substance: "CVVECIRSNHPSNFMMRNLG"
inactive

Look up amyloid nucleation score for this substance: "SLVFNQAHWNRLIPTT"
-1.02

Look up amyloid nucleation score for this substance: "IYRTYYGINACLINLCMFDN"
7.55

Look up amyloid nucleation score for this substance: "LNNYRDGLSY"
4.1

Look up amyloid nucleation score for this substance: "SGFVIWRRQHFEFQEVRSS"
-0.515

Look up amyloid nucleation score for this substance: "FMTSWTVYSSRAYLHENVGT"
1.08

Look up amyloid nucleation score for this substance: "TVVSVGVVRVHATLRVKESG"
5.66

Look up amyloid nucleation score for this substance: "SYPVDEMMRFCLFVMDTGQL"
0.106

Look up amyloid nucleation score for this substance: "IMMQDWGIGFAFIGSPCRCD"
9.01

Look up amyloid nucleation score for this substance: "NRSGEYRPLMMCVLGPLSTD"
0.687

Look up amyloid nucleation score for this substance: "VLSCRSLSAQFSMPAFMEQS"
0.972

Look up amyloid nucleation score for this substance: "VYYLVCGL"
0.147

Look up amyloid nucleation score for this substance: "TCSRERGRRWFGICASYSCE"
0.629
